The entries below come with measured Remaining activity (%) immediately after preparation values attached.
# System Under Test: T1, alcalase (trade name "Alcalase 2.5L", Novozymes) (UniProt P00780)
# T1 sequence (looked up): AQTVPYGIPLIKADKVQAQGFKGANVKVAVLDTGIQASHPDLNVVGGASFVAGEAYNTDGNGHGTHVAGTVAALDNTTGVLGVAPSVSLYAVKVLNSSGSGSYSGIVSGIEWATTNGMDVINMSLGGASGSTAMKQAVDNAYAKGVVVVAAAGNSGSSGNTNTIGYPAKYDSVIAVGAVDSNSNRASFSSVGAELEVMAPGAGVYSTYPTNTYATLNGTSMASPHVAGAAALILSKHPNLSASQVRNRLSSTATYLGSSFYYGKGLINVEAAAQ
# Experiment: cell-based or functional assay
Return type: number; implicit unit %.

Query string: Read off the recorded Remaining activity (%) immediately after preparation for proteinaceous protease inhibitor of SEQ ID NO:29 (protein) TDTGDHHNQKTEWPELVGKSVEEAKKVILQDKSEAQIVVLPVGTIVTMEYRIDRVRLFVDSLDKIAQVPNVG
Result string: 19
